Tested on: Pseudomonas aeruginosa
ASSAY: Antibacterial activity against Pseudomonas aeruginosa […] after 24 hrs by twofold serial dilution technique
Assay type: functional
RECORDED_ENDPOINT: MIC (µg/mL)

>>> measured_value("O=C(Nc1ccc2oc(Cc3ccc(Cl)cc3)nc2c1)c1cc2ccccc2o1")
31.2
>>> measured_value("CC1COc2c(N3CCN(C)CC3)c(F)cc3c(=O)c(C(=O)O)cn1c23 (stereo not given)")
62.5
>>> measured_value("O=C(Nc1ccc2oc(Cc3ccccc3)nc2c1)c1cc2ccccc2o1")
31.2
>>> measured_value("O=C(Nc1ccc2oc(Cc3ccc(Br)cc3)nc2c1)c1cc2ccccc2o1")
31.2
>>> measured_value("O=C(Nc1ccc2oc(-c3ccccc3Br)nc2c1)c1cc2ccccc2o1")
62.5
